assay: Toxicity in mouse harboring L1210 cells; type: organism-based
measurement.name: LD50 (mg/kg)
Number only, in mg/kg; omit the unit.

Enquiry: Would you mind telling me what LD50 value was observed for N[C@@H](Cc1ccc(N(CCCl)CCCl)cc1)C(=O)O [MELPHALAN] ?
Return: 21.7

====

assay: Toxicity in mouse harboring P-388 cells; format: organism-based
measurement.name: LD50 (mg/kg)
Number only, in mg/kg; omit the unit.

Enquiry: Would you mind telling me what LD50 value was observed for N[C@@H](Cc1ccc(N(CCCl)CCCl)cc1)C(=O)O [MELPHALAN] ?
Return: 21.7

====

test: Cytotoxicity against human HGF cells after 48 hrs; assay type: cell-based
measurement.name: CC50 at 48 h (µM)
Number only, in µM; omit the unit.

Below: 4 compounds and their reported CC50 at 48 h.
{"columns": ["chem.smiles", "CC50 at 48 h (µM)"],
 "data": [
  ["O=C1/C(=C/c2ccccc2)CN(C(=O)CCSCCO)C/C1=C\\c1ccccc1", 17],
  ["Cc1ccc(/C=C2\\CN(C(=O)CCSCCO)C/C(=C\\c3ccc(C)cc3)C2=O)cc1", 9.1],
  ["O=C1/C(=C/c2ccc(Cl)cc2)CN(C(=O)CCSCCO)C/C1=C\\c1ccc(Cl)cc1", 8.3],
  ["COc1ccc(/C=C2\\CN(C(=O)CCSCCO)C/C(=C\\c3ccc(OC)cc3)C2=O)cc1", 17]
]}

Enquiry: Would you mind telling me what CC50 at 48 h value was observed for O=C1/C(=C/c2ccc([N+](=O)[O-])cc2)CN(C(=O)CCSCCO)C/C1=C\c1ccc([N+](=O)[O-])cc1 ?
Return: 5.4

====

test system: HL-60; test: Selectivity index, ratio of average CC50 for normal human cell line to CC50 for human HL-60 cells
Listing of recorded Ratio by entry.
Lab note: jot the number down without any unit.

Below: 5 molecules and their reported Ratio.
{"columns": ["chem.smiles", "Ratio"],
 "data": [
  ["N[C@@H](Cc1ccc(N(CCCl)CCCl)cc1)C(=O)O", 150],
  ["O=C1/C(=C/c2ccc(Cl)cc2)CN(C(=O)CCSCCO)C/C1=C\\c1ccc(Cl)cc1", 8],
  ["COc1ccc(/C=C2\\CN(C(=O)CCSCCO)C/C(=C\\c3ccc(OC)cc3)C2=O)cc1", 4.9],
  ["O=C1/C(=C/c2ccccc2)CN(C(=O)CCSCCO)C/C1=C\\c1ccccc1", 8.7],
  ["O=C1/C(=C/c2ccc([N+](=O)[O-])cc2)CN(C(=O)CCSCCO)C/C1=C\\c1ccc([N+](=O)[O-])cc1", 13.3]
]}

Shift focus to the following entry.
Enquiry: Would you mind telling me what Ratio value was observed for Cc1ccc(/C=C2\CN(C(=O)CCSCCO)C/C(=C\c3ccc(C)cc3)C2=O)cc1 ?
Return: 4

====

tested on: L1210; experiment: Anticancer activity against mouse L1210 cells after 48 hrs; assay type: functional, cell-based; conditions: L1210, 48 h
pIC50: −log10 of the molar value.
Where pIC50 equals or exceeds 5, the correct label is true (1); where it does not, the label is false (0).

Some solved cases for reference:
{"columns": ["chem.smiles", "assigned.label"],
 "data": [
  ["O=C1/C(=C/c2ccc(Cl)cc2)CN(C(=O)CCSCCO)C/C1=C\\c1ccc(Cl)cc1", "true (1)"],
  ["Cc1ccc(/C=C2\\CN(C(=O)CCSCCO)C/C(=C\\c3ccc(C)cc3)C2=O)cc1", "true (1)"],
  ["O=C1/C(=C/c2ccccc2)CN(C(=O)CCSCCO)C/C1=C\\c1ccccc1", "true (1)"],
  ["O=C1/C(=C/c2ccccc2)CN(C(=O)CCSCCS(=O)(=O)O)C/C1=C\\c1ccccc1", "false (0)"],
  ["O=C1/C(=C/c2ccc([N+](=O)[O-])cc2)CN(C(=O)CCSCCO)C/C1=C\\c1ccc([N+](=O)[O-])cc1", "true (1)"],
  ["Cc1ccc(/C=C2\\CN(C(=O)CCSCCS(=O)(=O)O)C/C(=C\\c3ccc(C)cc3)C2=O)cc1", "false (0)"],
  ["COc1ccc(/C=C2\\CN(C(=O)CCSCCS(=O)(=O)O)C/C(=C\\c3ccc(OC)cc3)C2=O)cc1", "false (0)"],
  ["O=C1/C(=C/c2ccc(Cl)cc2)CN(C(=O)CCSCCS(=O)(=O)O)C/C1=C\\c1ccc(Cl)cc1", "false (0)"]
]}

Now examine the next entry.
Enquiry: Check the entry COc1ccc(/C=C2\CN(C(=O)CCSCCO)C/C(=C\c3ccc(OC)cc3)C2=O)cc1 : does pIC50 equal or exceed 5?
Return: false (0)

====

system: HCC 2998; experiment: Anticancer activity against human HCC2998 cells; type: functional, cell-based
measurement.name: pIC50
By convention, pIC50 is the negative base-10 log of a molar concentration.

{"columns": ["chem.smiles", "pIC50"],
 "data": [
  ["COc1ccc(/C=C2\\CN(C(=O)CCSCCS(=O)(=O)O)C/C(=C\\c3ccc(OC)cc3)C2=O)cc1", 4.51],
  ["O=C1/C(=C/c2ccc(Cl)cc2)CN(C(=O)CCSCCS(=O)(=O)O)C/C1=C\\c1ccc(Cl)cc1", 4.65],
  ["COc1ccc(/C=C2\\CN(C(=O)CCSCCO)C/C(=C\\c3ccc(OC)cc3)C2=O)cc1", 5.70],
  ["O=C1/C(=C/c2ccc(Cl)cc2)CN(C(=O)CCSCCO)C/C1=C\\c1ccc(Cl)cc1", 5.96],
  ["O=c1[nH]cc(F)c(=O)[nH]1", 4.87]
]}

Shift focus to the following entry.
Enquiry: Would you mind telling me what pIC50 value was observed for O=C1/C(=C/c2ccc([N+](=O)[O-])cc2)CN(C(=O)CCSCCO)C/C1=C\c1ccc([N+](=O)[O-])cc1 ?
Return: 6.55

====

tested on: HL-60; assay: Anticancer activity against human HL60 cells; format: functional, cell-based
measurement.name: pIC50
By convention, pIC50 is the negative base-10 log of a molar concentration.

{"columns": ["chem.smiles", "target.entity", "pIC50"],
 "data": [
  ["O=C1/C(=C/c2ccc(Cl)cc2)CN(C(=O)CCSCCS(=O)(=O)O)C/C1=C\\c1ccc(Cl)cc1", "HL-60", 4.59],
  ["COc1ccc(/C=C2\\CN(C(=O)CCSCCO)C/C(=C\\c3ccc(OC)cc3)C2=O)cc1", "HL-60", 5.77],
  ["O=C1/C(=C/c2ccc(Cl)cc2)CN(C(=O)CCSCCO)C/C1=C\\c1ccc(Cl)cc1", "HL-60", 6.49]
]}

Enquiry: Would you mind telling me what pIC50 value was observed for O=C1/C(=C/c2ccc([N+](=O)[O-])cc2)CN(C(=O)CCSCCO)C/C1=C\c1ccc([N+](=O)[O-])cc1 ?
Return: 7.00

====

Listing of recorded pIC50 by entry.
system: HCT-15; assay: Anticancer activity against human HCT15 cells; type: functional, cell-based
By convention, pIC50 is the negative base-10 log of a molar concentration.

Enquiry: Would you mind telling me what pIC50 value was observed for O=C1/C(=C/c2ccc(Cl)cc2)CN(C(=O)CCSCCS(=O)(=O)O)C/C1=C\c1ccc(Cl)cc1 ?
Return: 4.52

====

tested on: HSC-4; assay: Cytotoxicity against human HSC4 cells after 48 hrs; format: functional; details: HSC-4, 48 h
measurement.name: CC50

Below: 3 compounds and their reported CC50.
{"columns": ["chem.smiles", "result"],
 "data": [
  ["O=C1/C(=C/c2ccccc2)CN(C(=O)CCSCCO)C/C1=C\\c1ccccc1", "1300 nM"],
  ["O=C1/C(=C/c2ccc(Cl)cc2)CN(C(=O)CCSCCO)C/C1=C\\c1ccc(Cl)cc1", "510 nM"],
  ["COc1ccc(/C=C2\\CN(C(=O)CCSCCO)C/C(=C\\c3ccc(OC)cc3)C2=O)cc1", "2400 nM"]
]}

Enquiry: Would you mind telling me what CC50 value was observed for O=C1/C(=C/c2ccc([N+](=O)[O-])cc2)CN(C(=O)CCSCCO)C/C1=C\c1ccc([N+](=O)[O-])cc1 ?
Return: 380 nM

Enquiry: Input Cc1ccc(/C=C2\CN(C(=O)CCSCCO)C/C(=C\c3ccc(C)cc3)C2=O)cc1
Return: 1200 nM

Enquiry: Input N[C@@H](Cc1ccc(N(CCCl)CCCl)cc1)C(=O)O
Return: 32000 nM

====

system: HCT-15; experiment: Anticancer activity against human HCT15 cells; type: functional, cell-based
measurement.name: pIC50
By convention, pIC50 is the negative base-10 log of a molar concentration.

Below: 3 compounds and their reported pIC50.
{"columns": ["chem.smiles", "pIC50"],
 "data": [
  ["COc1ccc(/C=C2\\CN(C(=O)CCSCCO)C/C(=C\\c3ccc(OC)cc3)C2=O)cc1", 5.66],
  ["O=C1/C(=C/c2ccc([N+](=O)[O-])cc2)CN(C(=O)CCSCCO)C/C1=C\\c1ccc([N+](=O)[O-])cc1", 6.68],
  ["O=C1/C(=C/c2ccc(Cl)cc2)CN(C(=O)CCSCCO)C/C1=C\\c1ccc(Cl)cc1", 6.59]
]}

Shift focus to the following entry.
Enquiry: Would you mind telling me what pIC50 value was observed for O=c1[nH]cc(F)c(=O)[nH]1 ?
Return: 5.01
